Reference source: patent US9422339B2

# STUDY_TARGET: PD1-PDL1 interaction (Homo sapiens, UniProt Q9NZQ7)
# Construct: endogenous in cells; host or cells: MDA-MB-231 tumor cells (PD-L1); primary splenocytes of C57BL/6 mice (PD-1)
# Sequence (Q9NZQ7 19-290): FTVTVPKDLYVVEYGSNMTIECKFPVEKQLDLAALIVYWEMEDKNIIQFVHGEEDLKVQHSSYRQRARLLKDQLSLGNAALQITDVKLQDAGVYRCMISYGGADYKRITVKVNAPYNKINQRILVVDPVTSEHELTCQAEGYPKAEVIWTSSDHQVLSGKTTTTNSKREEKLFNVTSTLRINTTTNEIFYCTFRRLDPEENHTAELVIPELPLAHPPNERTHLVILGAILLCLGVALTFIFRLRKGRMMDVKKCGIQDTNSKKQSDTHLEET
# ASSAY_INFO: CFSE mouse splenocyte proliferation assay (FACS), co-culture with MDA-MB-231 tumor cells expressing PD-L1
# Assay type: cell-based
# CONDITIONS: mouse splenocytes stimulated with anti-CD3/CD28, co-culture with MDAMB231 over expressing PDL1, 72 hrs; background 13, stimulated splenocytes 72
Where a SMILES comes first, the peptide text is derived from it. Bridges are numbered along the chain shown (N, C = ends). [ ]: non-standard residue; d: D form. ξ: configuration not given here. ξE = NC(CCC(=O)O)C(=O)O; ξQ = NC(=O)CCC(N)C(=O)O; ξK = NCCCCC(N)C(=O)O; Ahx = NCCCCCC(=O)O; ξS = NC(CO)C(=O)O
Assign labels as follows, please: true for % Splenocyte proliferation below 40%; false for % Splenocyte proliferation equal to or exceeding 40%.

INSERT INTO assay_data (molecule, cat) VALUES
  ('C[C@@H](O)[C@@H]1NC(=O)C(NC(=O)[C@@H](N)CCC(=O)O)CCC(=O)NCCCCC(C(=O)N[C@@H](CO)C(=O)N[C@@H](Cc2ccccc2)C(N)=O)NC(=O)[C@H](CO)NC1=O (some centres unmarked) [Compound 4] (H-E[ξE]TS[ξK]SF-NH2; lactam 2-5; N-terminus assumed)', 'true'),
  ('CC[C@H](C)[C@H](NC(=O)[C@H](CO)NC(=O)C1CCCCNC(=O)CCC(NC(=O)[C@@H](N)CO)C(=O)N[C@@H]([C@@H](C)O)C(=O)N[C@@H](CO)C(=O)N1)C(N)=O (some centres unmarked) [Compound 5] (H-S[ξE]TS[ξK]SI-NH2; lactam 2-5; N-terminus assumed)', 'false'),
  ('C[C@@H](O)[C@@H]1NC(=O)[C@H](CC(N)=O)NC(=O)C(CO)NC(=O)C(CCC(N)=O)NC(=O)[C@H](Cc2ccccc2)NC(=O)[C@H](CO)NC(=O)[C@H](CCC(=O)O)NC(=O)[C@H](CO)NC1=O (some centres unmarked) [Compound 14] (cyclo(ESF[ξQ][ξS]NTS))', 'false'),
  ('C[C@@H](O)[C@@H]1NC(=O)[C@H](CCC(=O)O)NC(=O)C(CO)NC(=O)C(CCC(N)=O)NC(=O)[C@H](Cc2ccccc2)NC(=O)[C@H](CO)NC(=O)[C@H](CCCCN)NC(=O)[C@H](CO)NC1=O (some centres unmarked) [Compound 16] (cyclo(ETSKSF[ξQ][ξS]))', 'true'),
  ('C[C@@H](O)[C@@H]1NC(=O)[C@H](CCC(=O)O)NC(=O)C(CO)NC(=O)CCCCCNC(=O)C(CCC(N)=O)NC(=O)[C@H](Cc2ccccc2)NC(=O)[C@H](CO)NC(=O)[C@H](CCCCN)NC(=O)[C@H](CO)NC1=O (some centres unmarked) [Compound 17] (cyclo([Ahx][ξS]ETSKSF[ξQ]))', 'false'),
  ('C[C@@H](O)[C@@H]1NC(=O)[C@H](CC(N)=O)NC(=O)C(CO)NC(=O)C(CCC(N)=O)NC(=O)CCCCCNC(=O)[C@H](Cc2ccccc2)NC(=O)[C@H](CO)NC(=O)[C@H](CCC(=O)O)NC(=O)[C@H](CO)NC1=O (some centres unmarked) [Compound 15] (cyclo([Ahx][ξQ][ξS]NTSESF))', 'false');

Now for another entry.
Record C[C@@H](O)[C@@H]1NC(=O)[C@@H](NC(=O)[C@@H](N)CO)CCC(=O)NCCCC[C@@H](C(=O)N[C@@H](CO)C(=O)N[C@@H](Cc2ccccc2)C(N)=O)NC(=O)[C@H](CO)NC1=O [Compound 2] (H-SETSKSF-NH2; lactam 2-5) : is its % Splenocyte proliferation strictly below 40%?
false
